Cited source for all entries: patent US11596633B2

# Test system: LoVo
# protocol_description: 3D cell viability (CTG)
# Type: cell-based
# assay_setup: Homo sapiens, KRAS G13D, 3D culture
reported_property: IC50

Record Nc1nc(N2CCC3(CCC[C@H]3N)CC2)cnc1Sc1ccnc(Cl)c1Cl has LoVo IC50 equal to > 10 µM

* * *

# Test system: NCI-H1155
# protocol_description: 3D cell viability (CTG)
# Format: cell-based
# assay_setup: Homo sapiens; NCI-H1155, KRAS Q61H, 3D culture
reported_property: IC50

Sample Nc1nc(N2CCC3(CCC[C@H]3N)CC2)cnc1Sc1ccnc(Cl)c1Cl ; IC50 observed: > 10 µM
